Recorded values, source PubChem BioAssay.

assay: inhibitors of TNFa-induced NFkB p65 translocation, primary screen, imaging, HUVEC, MLSMR starter and 10KST1 sets (AID 438); settings: HUVEC TNFa-induced p65 nuclear translocation; at 2 µM, hits give high values, 0% TNFa-plus-vehicle, 100% no-TNFa wells;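 further: compound added about 3h40 before a 20 min TNFalpha stimulation; signal is the nuclear over cytoplasmic p65 intensity ratio per well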
property.label: inhibition (%)
Give your result in % as a bare value.

Below, 2 molecules whose answers are already recorded.
molecule: CCC1(CC)NC(=O)NC1=O
property.label: inhibition
measured.result: 2.2
//
molecule: Cc1cc(C)n2cc(CSCc3ccco3)nc2n1
property.label: inhibition
measured.result: -13.6

Task: What value of inhibition has been reported for the following molecule? COc1ccccc1NC(=O)C1(C)Cc2ccccc2C(=O)O1 (stereo not drawn)
Output: 12.4

---

target: Muscarinic acetylcholine receptor M4 (Homo sapiens); experiment: M4-linked GIRK flux change, two-sided – cell-based, HEK293 M4/GIRK, thallium flux, BTC-AM, M4 allosteric agonist project, primary screen (AID 625); details: at 10 µM, actives lie on both sides;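 further: thallium influx through GIRK channels coupled to M4 in HEK293 cells with BTC-AM dye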
Each entry belongs to exactly one class, chosen by where its fluorescence slope falls: class A = under 0.005, class B = from 0.005 up to 0.006, class C = 0.006 and over

compound: Cc1cc(C(F)F)n2ncc(C(=O)NC3CCCCCC3)c2n1
qualitative.label: class A
--
compound: CC(C(=O)Oc1ccc2c(c1)OCO2)N1C(=O)c2ccccc2C1=O (stereo not drawn)
qualitative.label: class B
--
compound: Nc1c(C(=O)NCCc2ccccc2)nnn1Cc1ccccc1
qualitative.label: class B

Task: Which category does the recorded fluorescence slope put `Nc1nc(N)nc(-c2ccccc2)n1` in?
Output: class A

Task: Sort `CCCn1c2ccccc2c2nnc(SCC(=O)Nc3ncccn3)nc21` into one of the categories.
Output: class A

Task: Would you mind sorting `C=CCn1c(SCc2cc(=O)n3ccsc3n2)nnc1C1CCCCC1` into the appropriate category?
Output: class C

Task: Which class does `CCS(=O)(=O)c1ccc(S(=O)(=O)CC)s1` fall in?
Output: class C

Task: # bin lookup: classify `CCOc1ccc(C(=O)Nc2cc(C)on2)cc1OCC` by its fluorescence slope
Output: class B

---

molecular target: Voltage-gated potassium channel subunit beta-2 (Rattus norvegicus) (UniProt P62483); experiment: inhibitors of rat Kvbeta2 reductase activity – biochemical, NADPH fluorescence, primary screen (AID 622); details: recombinant KvBeta, 4-cyanobenzaldehyde reduction, at 10 µM, hits give high values;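 further: slope of raw intensity against log time taken from 70 to 1610 s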
Sequence (P62483 whole entry, looked up): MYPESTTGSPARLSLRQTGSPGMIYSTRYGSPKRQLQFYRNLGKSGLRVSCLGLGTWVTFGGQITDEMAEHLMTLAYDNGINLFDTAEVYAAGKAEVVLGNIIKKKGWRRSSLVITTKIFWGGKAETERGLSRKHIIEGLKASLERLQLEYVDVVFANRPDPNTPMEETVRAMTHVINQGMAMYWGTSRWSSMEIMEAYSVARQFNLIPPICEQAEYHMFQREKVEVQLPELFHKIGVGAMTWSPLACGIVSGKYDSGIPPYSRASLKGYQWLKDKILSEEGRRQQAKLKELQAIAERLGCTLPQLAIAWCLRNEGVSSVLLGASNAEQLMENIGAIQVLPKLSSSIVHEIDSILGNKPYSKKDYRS
In this section we review reported fluorescence slope values for a set of molecules.
Would you mind answering with just the numeric figure?

Worked cases, fluorescence slope given:
molecule: Cc1cc2ncn(C(=O)N3CCOCC3)c2cc1C
target: Voltage-gated potassium channel subunit beta-2 (Rattus norvegicus) (UniProt P62483)
fluorescence slope: -0.572

molecule: CCCCN(C)Cc1c(O)ccc2c(-c3ccccc3)cc(=O)oc12
target: Voltage-gated potassium channel subunit beta-2 (Rattus norvegicus) (UniProt P62483)
fluorescence slope: -0.158

molecule: CC(=O)c1c(C)nn(CC(O)COc2ccc3c(c2)CCC3)c1C (stereo unspecified)
target: Voltage-gated potassium channel subunit beta-2 (Rattus norvegicus) (UniProt P62483)
fluorescence slope: -0.435

molecule: N#Cc1cnn(Cc2ccc(Cl)cc2)c1N
target: Voltage-gated potassium channel subunit beta-2 (Rattus norvegicus) (UniProt P62483)
fluorescence slope: -0.466

molecule: Cn1c2c(c(=O)n(C)c1=O)CN(CCCN1CCOCC1)CN2
target: Voltage-gated potassium channel subunit beta-2 (Rattus norvegicus) (UniProt P62483)
fluorescence slope: -0.595

Then this molecule:
Task: API: value(readout= fluorescence slope, system= Voltage-gated potassium channel subunit beta-2 (Rattus norvegicus) (UniProt P62483), query= COc1cccc(C2C(C(=O)c3cccs3)=C(O)C(=O)N2CCCn2ccnc2)c1OC (stereo unspecified) )
Output: -0.341

---

Listed next: entries and their corresponding inhibition of aggregation.
test: reduction of polyQ htt aggregates in cells – imaging, exon1htt(103Q)mCFP cells, high-content imaging, primary screen (AID 483); conditions: exon1htt(103Q)mCFP cell line, aggregate imaging, at 2 µM; hits give high values;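 further: compound exposure lasted 3 days before fixation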
Numbers only here, please. The scale is %.

Task: Item `Cc1ccc(C)c(CSc2nnc(CCN)o2)c1` has what recorded inhibition of aggregation?
Output: 2.5

Task: inhibition of aggregation lookup needed for Cc1ccc(S(=O)(=O)N2CCCC(c3nnc4n3-c3ccccc3SC4)C2)cc1 (stereo not given) , thanks.
Output: 4.2

Task: Given `CCOC(=O)c1ccc(NC(=O)CCNc2c(N3CCCC3)c(=O)c2=O)cc1` , state its recorded inhibition of aggregation.
Output: 26.6

Task: inhibition of aggregation lookup needed for CCOc1cc2[nH]c(=S)n(CC3CCCO3)c(=O)c2cc1OCC (stereo not given) , thanks.
Output: 1

Task: Returns the measured inhibition of aggregation for the input molecule. Input: `O=C(CN(c1ccc(F)cc1)S(=O)(=O)c1ccc2c(c1)OCCO2)Nc1cccnc1`
Output: 7

---

Here, each record is paired with measured inhibition data.
assay: inhibitors of TNFa-induced NFkB p65 translocation, primary screen, imaging, HUVEC, MLSMR starter and 10KST1 sets (AID 438); details: HUVEC TNFa-induced p65 nuclear translocation; at 2 µM, hits give high values, 0% TNFa-plus-vehicle, 100% no-TNFa wells;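 further: compound added about 3h40 before a 20 min TNFalpha stimulation; signal is the nuclear over cytoplasmic p65 intensity ratio per well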
Report as a plain number; the unit % is understood.

molecule: Cc1nc2oc3c(NCc4ccccn4)ncnc3c2c2c1COC(C)(C)C2
property.label: inhibition
measured.result: -2.9

Task: inhibition for `O=C(Cn1nc(Cc2cccnc2)c2ccccc2c1=O)Nc1ccc2c(c1)OCO2` ?
Output: 3

Task: I would be grateful if you could share the reported inhibition for `O=C(CCN1CCN(C(=O)c2ccco2)CC1)Nc1ccc(F)cc1` .
Output: -2.6

Task: May I ask what inhibition has been recorded for `COc1ccc(-n2c(N)c(C(=O)NCc3ccco3)c3nc4ccccc4nc32)c(OC)c1` ?
Output: -6

Task: Given the molecule CC1(C)C(c2cccs2)=[N+]([O-])C2(CCCCC/C2=N\O)N1O (stereo not given) , what is its reported inhibition?
Output: 0.5

---

test: TLR3 IRF3 reporter activation blockers – cell-based, poly I:C stimulus, luciferase, 10K MLSCN set, primary screen (AID 602277); conditions: HEK293-TLR3 RL24 IRF3 luciferase reporter, at 10 µM, hits give high values
Recorded inhibition, one value per entry.
Express your answer in %, writing the number without its unit.

Answered examples (5):
compound: Nc1nnc(SCC(=O)N2CCN(c3ccccc3)CC2)n1-c1ccccc1
measured.result: 21.1

compound: O=C(Nc1cccnc1N1CCOCC1)c1ccco1
measured.result: 10.7

compound: Cc1nccn1CCCN1C(=O)OC2(CCCCC2)C1(C)O (centres undefined)
measured.result: 17.2

compound: CCCOc1ccc(N2C(=O)CC(NCCCN3CCC(C(N)=O)CC3)C2=O)cc1 (centres undefined)
measured.result: 19.7

compound: CC1CCc2nn(CC(=O)NCc3ccc(F)cc3)cc2C1 (centres undefined)
measured.result: 20.2

Task: Suppose we examine the compound `COC(=O)c1ccc2ncccc2c1` ; what inhibition value has been reported?
Output: -24.8

Task: GET /values?readout=inhibition&item= `COC(=O)c1ccnc(/C=N/O)c1`
Output: 19.8

Task: Entry under review: `COc1cccc(NC(=O)c2ccccc2NS(C)(=O)=O)c1` . Reported inhibition?
Output: 13.1

Task: What does the data say about its inhibition? Entry: `Cc1ccc(NC(=O)CSc2nnc(-c3ccc(S(=O)(=O)N4CCOCC4)cc3)n2C)cc1`
Output: 4.26

Task: Return reported inhibition; argument: `COc1ccc(-n2cnnc2SCCC#N)cc1`
Output: 12

Task: // query inhibition value for entry `c1ccc2c(c1)nc(-c1ccncc1)n1nnnc21`
Output: 0.706

Task: Need inhibition of `Nn1cc(-c2ccccc2)nc1SCC(=O)N1CCN(S(=O)(=O)c2ccccc2)CC1` , thanks.
Output: 12.7

Task: // returns reported inhibition for input `CC(C)c1nnc(NC(=O)Cc2cccs2)s1`
Output: 22.9

Task: Please look up its inhibition: `C/C(=C\C(=O)c1ccc(F)cc1)Nc1ccc(N2CCOCC2)cc1`
Output: -43.6

Task: Reported inhibition, compound `CCn1cc(C(=O)OCc2ccc(F)cc2)c(=O)c2ccc(C)nc21` : ____
Output: -3.06

Task: Dear colleague, I am looking for the recorded inhibition of the following compound: `COc1ccc(OC)c(NC(=O)CSc2ncccc2C(=O)O)c1`
Output: 9.5

Task: Could you share which inhibition value was measured for `CCOC(=O)N1CCN(C(=O)CCc2c(C)nc3c(c(C)nn3-c3ccc(C)c(C)c3)c2C)CC1` ?
Output: 13.8

Task: Requested read-out: inhibition. Entry: `O=C(O)c1ccc2noc(-c3ccccc3)c2c1`
Output: -49.6

Task: Would you kindly share the measured inhibition for `C=CCNc1oc(-c2cccc3ccccc23)nc1C#N` ?
Output: -35.7

---

target: Alpha-2C adrenergic receptor (Homo sapiens) (UniProt P18825); assay: compounds altering alpha2C-coupled GIRK flux – cell-based, HEK293 alpha2C/GIRK1/2, thallium flux, primary screen (AID 624); details: thallium flux BTC fluorescence, at 10 µM, actives lie on both sides;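 further: slope of fluorescence ratio to pre-addition baseline per second over 15 to 24 s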
Sequence (P18825 whole entry, looked up): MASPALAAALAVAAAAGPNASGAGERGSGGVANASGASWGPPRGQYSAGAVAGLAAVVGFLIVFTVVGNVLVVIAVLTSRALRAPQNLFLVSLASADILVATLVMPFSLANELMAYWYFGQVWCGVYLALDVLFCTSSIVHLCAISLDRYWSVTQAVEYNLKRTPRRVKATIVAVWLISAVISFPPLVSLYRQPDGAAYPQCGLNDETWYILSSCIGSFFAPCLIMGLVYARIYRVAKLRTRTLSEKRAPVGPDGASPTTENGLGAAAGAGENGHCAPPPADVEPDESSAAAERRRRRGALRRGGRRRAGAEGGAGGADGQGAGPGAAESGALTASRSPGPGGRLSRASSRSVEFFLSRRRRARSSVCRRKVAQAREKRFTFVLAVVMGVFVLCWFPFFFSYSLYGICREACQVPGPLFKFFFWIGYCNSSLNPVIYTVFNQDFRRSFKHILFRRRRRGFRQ
Label Y when slope is strictly below 0.006; otherwise label N.

compound: Nc1nnc(-c2cn(-c3ccccc3)nc2-c2ccccc2)o1
target: Alpha-2C adrenergic receptor (Homo sapiens) (UniProt P18825)
qualitative.label: Y

Task: For CCOc1ccccc1C1CC(c2ccc(Br)cc2)Nc2nc(N)nn21 (stereo unspecified) , is the recorded slope below the cut-off of 0.006?
Output: N

Task: Could you please tell me whether slope recorded for `Cc1ccc(CS(=O)(=O)Cc2ccc(C(=O)NCc3ccccn3)o2)cc1` is less than 0.006?
Output: Y

Task: For this compound, is slope lower than 0.006? `Cc1ccc(S(=O)(=O)Cn2nnnc2CN(Cc2ccco2)Cc2cccs2)cc1`
Output: Y

Task: Determine if `O=C(NCCCN1CCCC1=O)C1CCN(S(=O)(=O)N2CCOCC2)CC1` shows slope strictly lower than 0.006.
Output: Y

Task: Take the compound `Clc1ccc(OCCCn2cncn2)cc1Cl` and say whether its slope is less than 0.006.
Output: N

Task: Please determine if CCOCCCNC(=O)C(c1ccccc1)N(Cc1ccc2c(c1)OCO2)C(=O)CNC(C)=O (stereo unspecified) is below 0.006 in terms of slope.
Output: N

Task: Report whether reported slope is lower than 0.006 (strictly) for `NC(=O)CSc1nnc(-c2cnccn2)n1-c1ccccc1`
Output: Y

Task: API: query returns whether the compound falls strictly under 0.006 in slope. Query: `CCOC(=O)Cc1csc(NC(=O)CSc2nnc(C(C)C)n2CC)n1`
Output: N
